- target_entity: human androgen receptor W741L mutant (Homo sapiens, UniProt P10275, W742L)
- Sequence (P10275 whole entry W742L): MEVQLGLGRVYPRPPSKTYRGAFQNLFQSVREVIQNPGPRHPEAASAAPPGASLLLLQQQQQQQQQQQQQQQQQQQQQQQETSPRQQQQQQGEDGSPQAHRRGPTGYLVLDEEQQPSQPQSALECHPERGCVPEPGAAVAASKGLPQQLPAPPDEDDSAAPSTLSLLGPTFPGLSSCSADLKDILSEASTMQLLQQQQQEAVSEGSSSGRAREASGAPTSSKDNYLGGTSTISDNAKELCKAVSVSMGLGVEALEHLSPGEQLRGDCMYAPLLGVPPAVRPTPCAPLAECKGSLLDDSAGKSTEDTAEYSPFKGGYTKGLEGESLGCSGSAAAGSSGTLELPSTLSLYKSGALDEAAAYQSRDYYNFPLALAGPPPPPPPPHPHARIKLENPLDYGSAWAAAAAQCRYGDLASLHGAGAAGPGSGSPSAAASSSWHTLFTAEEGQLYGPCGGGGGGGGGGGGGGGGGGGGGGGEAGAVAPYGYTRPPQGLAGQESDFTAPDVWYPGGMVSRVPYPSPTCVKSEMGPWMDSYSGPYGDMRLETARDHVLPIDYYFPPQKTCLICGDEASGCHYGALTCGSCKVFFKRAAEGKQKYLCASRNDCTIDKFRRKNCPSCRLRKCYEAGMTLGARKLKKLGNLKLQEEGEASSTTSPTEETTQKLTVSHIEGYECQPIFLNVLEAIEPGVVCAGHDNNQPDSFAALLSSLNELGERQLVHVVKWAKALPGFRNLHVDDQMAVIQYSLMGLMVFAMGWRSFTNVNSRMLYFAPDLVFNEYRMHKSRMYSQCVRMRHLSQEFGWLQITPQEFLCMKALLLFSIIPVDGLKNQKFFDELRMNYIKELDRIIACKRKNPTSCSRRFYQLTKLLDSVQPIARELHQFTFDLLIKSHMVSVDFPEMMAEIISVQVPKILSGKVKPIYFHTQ
- assay_name: Cell-based transactivation assay for human androgen receptor mutant W741L
pIC50: −log10 of the molar value.

smi | sign | pIC50
CC1(C)C(=O)N(c2ccc(C#N)c(C(F)(F)F)c2)C(=S)N1Cc1ccc(-n2cnnn2)nc1 | ≤ | 6.00
CC1(C)C(=O)N(c2ccc(C#N)c(C(F)(F)F)c2)C(=S)N1Cc1ccc(N2CCS(=N)(=O)CC2)nc1 | = | 6.56
CC1(C)C(=O)N(c2ccc(C#N)c(C(F)(F)F)c2)C(=S)N1Cc1cnc(N2CCOCC2)nc1N | = | 7.03
CC1(C)C(=O)N(c2ccc(C#N)c(C(F)(F)F)c2)C(=S)N1Cc1ccc(N2CCNC2=O)nc1 | = | 6.61
Cn1cc(-c2ccc(CN3C(=S)N(c4ccc(C#N)c(C(F)(F)F)c4)C(=O)C3(C)C)cn2)cn1 | = | 7.02
CC1(C)C(=O)N(c2ccc(C#N)c(C(F)(F)F)c2)C(=S)N1Cc1ccc(N=[S@](C)(=O)c2ccccc2)nc1 | = | 6.68
Cc1nccn1-c1ccc(CN2C(=S)N(c3ccc(C#N)c(C(F)(F)F)c3)C(=O)C2(C)C)cn1 | = | 7.88
